Give measured IC50 for each item. Keep answers brief.
Target: EZH2 Mutant Y641N (Homo sapiens (Human), UniProt Q15910, Y641N)
Sequence (Q15910 whole entry Y641N, looked up): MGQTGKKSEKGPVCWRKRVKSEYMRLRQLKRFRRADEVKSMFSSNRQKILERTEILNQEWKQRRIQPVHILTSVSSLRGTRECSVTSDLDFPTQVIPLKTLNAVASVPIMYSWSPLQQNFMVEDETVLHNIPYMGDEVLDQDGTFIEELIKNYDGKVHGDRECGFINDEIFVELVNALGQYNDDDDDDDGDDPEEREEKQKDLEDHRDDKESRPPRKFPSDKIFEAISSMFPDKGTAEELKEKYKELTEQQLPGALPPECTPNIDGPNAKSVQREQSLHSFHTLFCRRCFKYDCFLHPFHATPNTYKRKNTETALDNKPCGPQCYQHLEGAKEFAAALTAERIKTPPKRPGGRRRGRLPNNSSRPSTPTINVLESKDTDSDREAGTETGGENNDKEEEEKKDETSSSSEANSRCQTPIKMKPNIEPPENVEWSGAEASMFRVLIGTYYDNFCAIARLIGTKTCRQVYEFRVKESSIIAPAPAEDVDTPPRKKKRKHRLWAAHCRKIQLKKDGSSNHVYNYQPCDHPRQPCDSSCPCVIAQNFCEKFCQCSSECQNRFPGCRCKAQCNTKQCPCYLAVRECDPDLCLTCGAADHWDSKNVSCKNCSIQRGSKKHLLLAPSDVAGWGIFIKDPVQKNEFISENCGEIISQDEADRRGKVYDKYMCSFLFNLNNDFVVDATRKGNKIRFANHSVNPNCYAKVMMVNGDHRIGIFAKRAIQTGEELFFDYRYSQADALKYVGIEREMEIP
Sequence (O75530 whole entry partner, looked up): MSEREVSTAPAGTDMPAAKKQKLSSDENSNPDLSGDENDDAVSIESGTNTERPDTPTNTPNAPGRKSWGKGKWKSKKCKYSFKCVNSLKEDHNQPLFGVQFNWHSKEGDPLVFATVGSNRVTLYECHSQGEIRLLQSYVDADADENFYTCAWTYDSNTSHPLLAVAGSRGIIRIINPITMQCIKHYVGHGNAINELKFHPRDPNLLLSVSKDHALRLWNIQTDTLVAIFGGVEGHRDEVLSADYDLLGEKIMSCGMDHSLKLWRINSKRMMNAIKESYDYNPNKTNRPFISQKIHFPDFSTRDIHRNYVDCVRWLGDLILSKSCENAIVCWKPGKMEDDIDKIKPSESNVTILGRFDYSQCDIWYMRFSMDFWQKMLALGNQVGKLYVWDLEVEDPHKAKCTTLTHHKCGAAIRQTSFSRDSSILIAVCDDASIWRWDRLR
Sequence (Q15022 whole entry partner, looked up): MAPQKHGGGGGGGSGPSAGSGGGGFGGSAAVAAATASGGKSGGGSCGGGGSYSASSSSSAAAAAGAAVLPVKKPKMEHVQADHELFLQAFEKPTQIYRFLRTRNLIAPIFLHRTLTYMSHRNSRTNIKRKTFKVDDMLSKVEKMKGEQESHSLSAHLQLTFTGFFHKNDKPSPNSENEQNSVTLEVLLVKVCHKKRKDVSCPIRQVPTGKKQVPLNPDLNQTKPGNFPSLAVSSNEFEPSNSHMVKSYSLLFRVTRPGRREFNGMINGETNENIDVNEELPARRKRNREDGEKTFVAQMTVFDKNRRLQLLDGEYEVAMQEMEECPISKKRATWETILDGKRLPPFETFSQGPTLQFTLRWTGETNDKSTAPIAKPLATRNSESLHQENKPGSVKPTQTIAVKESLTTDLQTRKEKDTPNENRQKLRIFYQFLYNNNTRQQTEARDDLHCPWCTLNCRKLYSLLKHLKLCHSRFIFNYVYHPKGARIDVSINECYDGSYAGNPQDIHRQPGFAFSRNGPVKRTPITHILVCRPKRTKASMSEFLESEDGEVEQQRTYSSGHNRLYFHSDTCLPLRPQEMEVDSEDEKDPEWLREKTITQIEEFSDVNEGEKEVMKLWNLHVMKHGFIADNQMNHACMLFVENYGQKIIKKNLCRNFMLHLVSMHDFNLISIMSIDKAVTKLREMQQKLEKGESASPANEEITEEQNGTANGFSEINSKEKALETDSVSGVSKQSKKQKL
Sequence (Q09028 whole entry partner, looked up): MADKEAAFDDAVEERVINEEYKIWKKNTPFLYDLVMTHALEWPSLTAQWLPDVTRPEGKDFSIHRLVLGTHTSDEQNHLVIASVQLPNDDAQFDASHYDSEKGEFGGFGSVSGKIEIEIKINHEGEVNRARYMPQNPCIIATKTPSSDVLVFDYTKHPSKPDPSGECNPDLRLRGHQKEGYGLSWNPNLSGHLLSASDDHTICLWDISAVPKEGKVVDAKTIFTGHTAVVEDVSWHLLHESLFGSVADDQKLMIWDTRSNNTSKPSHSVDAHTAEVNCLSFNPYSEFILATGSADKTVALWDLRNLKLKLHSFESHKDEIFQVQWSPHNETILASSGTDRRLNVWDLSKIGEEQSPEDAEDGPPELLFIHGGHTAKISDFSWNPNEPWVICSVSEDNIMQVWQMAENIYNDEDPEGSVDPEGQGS
Experiment: EZH2 Mutant Y641N nucleosome assay
Type: biochemical
Details: PRC2 4-protein complex 6 nM, 1.5 μM SAM, HeLa oligonucleosomes; read-out: EZH2 Mutant Y641N Nucleosome assay IC50
Experimental: The genes for EZH2, EED, SUZ12, and RBBP4 proteins were cloned into pBacPAK9 vectors (Clontech). RBBP4 was FLAG tagged on the N-terminal end. The baculovirus expressions of these proteins were used to co-infect SF9 insect cells. […] D. Data analysis • 1. IC50 values were determined by fitting the data to a 4-parameter IC50 equation using proprietary curve fitting software. • 2. […]
Returns: string containing the number followed by the unit.

// worked examples, IC50 included
### Prompt Annotate the compound COC(C(C)=O)c1cc(Cl)c2c(c1Cl)C(=O)N(Cc1c(C)cc(C)[nH]c1=O)CC2 (racemic) [Example 49] with its measured IC50.
### Response 996 nM

### Prompt Annotate the compound COC(c1cc(Cl)c2c(c1Cl)C(=O)N(Cc1c(C)cc(C)[nH]c1=O)CC2)C1CC(=O)N(C)C1 (single isomer, unassigned) [Example 179] with its measured IC50.
### Response 9 nM

### Prompt Annotate the compound Cc1cc(OC(F)F)c(CN2CCc3c(Cl)cc(C(CO)C4CCOC4)c(Cl)c3C2=O)c(=O)[nH]1 (single isomer, unassigned) [Example 95] with its measured IC50.
### Response 12 nM

### Prompt Annotate the compound Cc1cc(C)c(CN2CCc3c(C)cc(C(C)C4CN(S(C)(=O)=O)C4)c(Cl)c3C2=O)c(=O)[nH]1 (single isomer, unassigned) [Example 194] with its measured IC50.
### Response 309 nM

### Prompt Annotate the compound COc1cc(C)[nH]c(=O)c1CN1CCc2c(Cl)cc(C(C)C3CN(C)C3)c(Cl)c2C1=O (single isomer, unassigned) [Example 87] with its measured IC50.
### Response 2 nM

Here is another compound to look at.
### Prompt Annotate the compound Cc1cc(C)c(CN2CCc3c(Cl)cc(C(CO)N4CCCC4)c(Cl)c3C2=O)c(=O)[nH]1 (racemic) [Example 57] with its measured IC50.
### Response 1350 nM

* * *

Give measured IC50 for each item. Keep answers brief.
Biological target: UniProtKB Q15910
Experiment: WT EZH2 nucleosome assay
Format: biochemical
Conditions: PRC2 4-protein complex 4 nM, 1.5 μM SAM, HeLa oligonucleosomes; read-out: WT EZH2 Nucleosome assay IC50
Numbers only, in nM.

// worked examples, IC50 included
### Prompt Annotate the compound Cc1cc(C)c(CN2CCc3c(Cl)cc(C([C@H](C)O)[C@@H](C)O)c(Cl)c3C2=O)c(=O)[nH]1 (single isomer, unassigned) with its measured IC50.
### Response 12

### Prompt Annotate the compound Cc1cc(C)c(CN2CCc3c(Cl)cc(C(C)CCO)c(Cl)c3C2=O)c(=O)[nH]1 (racemic) [Example 33] with its measured IC50.
### Response 12

### Prompt Annotate the compound `Cc1cc(C)c(CN2CCc3c(Cl)cc([C@H](CO)[C@H]4CCOC4)c(Cl)c3C2=O)c(=O)[nH]1` with its measured IC50.
### Response 1

### Prompt Annotate the compound `Cc1cc(C)c(CN2CCc3c(Cl)cc(CC(=O)O)c(Cl)c3C2=O)c(=O)[nH]1` with its measured IC50.
### Response 7820

### Prompt Annotate the compound `Cc1cc(C)c(CN2CCc3c(Cl)cc(C(C)C)c(Cl)c3C2=O)c(=O)[nH]1` with its measured IC50.
### Response 8

### Prompt Annotate the compound Cc1cc(C)c(CN2CCc3c(Cl)cc(C(C)CCO)c(Cl)c3C2=O)c(=O)[nH]1 (single isomer, unassigned) [Example 39] with its measured IC50.
### Response 40

### Prompt Annotate the compound `Cc1cc(C)c(CN2CCc3c(Cl)cc([C@H](C)CO)c(Cl)c3C2=O)c(=O)[nH]1` with its measured IC50.
### Response 126

Here is another compound to look at.
### Prompt Annotate the compound `Cc1cc(C)c(CN2CCc3c(Cl)cc(CC4CCN(C(=O)CO)CC4)c(Cl)c3C2=O)c(=O)[nH]1` with its measured IC50.
### Response 9

* * *

Give measured IC50 for each item. Keep answers brief.
Target: EZH2 Mutant Y641N (Homo sapiens (Human), UniProt Q15910, Y641N)
Assay: EZH2 Mutant Y641N nucleosome assay
Assay type: biochemical
Conditions: PRC2 4-protein complex 6 nM, 1.5 μM SAM, HeLa oligonucleosomes; read-out: EZH2 Mutant Y641N Nucleosome assay IC50
Returns: string containing the number followed by the unit.

// worked examples, IC50 included
### Prompt Annotate the compound COC(c1cc(Cl)c2c(c1Cl)C(=O)N(Cc1c(C)cc(C)[nH]c1=O)CC2)C1CC[S+]([O-])CC1 (single isomer, unassigned) [Example 114] with its measured IC50.
### Response 152 nM

### Prompt Annotate the compound Cc1cc(OC(F)F)c(CN2CCc3c(Cl)cc(C(CO)C4CCOC4)c(Cl)c3C2=O)c(=O)[nH]1 (single isomer, unassigned) [Example 94] with its measured IC50.
### Response 4870 nM

### Prompt Annotate the compound Cc1cc(C)c(CN2CCc3c(Cl)cc(C(C)N4CCN(C)CC4)c(Cl)c3C2=O)c(=O)[nH]1 (racemic) with its measured IC50.
### Response 207 nM

### Prompt Annotate the compound COC(c1cc(Cl)c2c(c1Cl)C(=O)N(Cc1c(C)cc(C)[nH]c1=O)CC2)[C@H](C)CO (single isomer, unassigned) [Example 141] with its measured IC50.
### Response 16 nM

Field: IC50. Fill in for each record below.
1. COc1cc(C)[nH]c(=O)c1CN1CCc2c(Cl)cc([C@H](CO)[C@@H]3CCCO3)c(Cl)c2C1=O
2. Cc1cc(C)c(CN2CCc3c(Cl)cc(C(C)C4CN(S(C)(=O)=O)C4)c(Cl)c3C2=O)c(=O)[nH]1 (single isomer, unassigned) [Example 185]

### Response
8 nM
12 nM

* * *

Target: EZH2 Mutant Y641N (Homo sapiens (Human), UniProt Q15910, Y641N)
Assay: EZH2 Mutant Y641N nucleosome assay
Format: biochemical
Conditions: PRC2 4-protein complex 6 nM, 1.5 μM SAM, HeLa oligonucleosomes; read-out: EZH2 Mutant Y641N Nucleosome assay IC50
Give measured pIC50 for each item. Keep answers brief.
Answers are plain numbers, as −log10 of the molar value.

// worked examples, pIC50 included
### Prompt Annotate the molecule Cc1cc(OC(F)F)c(CN2CCc3c(Cl)cc(C(CO)C4CCOC4)c(Cl)c3C2=O)c(=O)[nH]1 (single isomer, unassigned) [Example 92] with its measured pIC50.
### Response 8.05

### Prompt Annotate the molecule COC(c1cc(Cl)c2c(c1Cl)C(=O)N(Cc1c(C)cc(C)[nH]c1=O)CC2)C1CCOCC1 (single isomer, unassigned) [Example 50] with its measured pIC50.
### Response 6.89

### Prompt Annotate the molecule COC(c1cc(C)c2c(c1Cl)C(=O)N(Cc1c(C)cc(C)[nH]c1=O)CC2)C1CNC1 (racemic) with its measured pIC50.
### Response 7.70

### Prompt Annotate the molecule COc1cc(C)[nH]c(=O)c1CN1CCc2c(Cl)cc(C(C3COC3)N(C)C)c(Cl)c2C1=O (single isomer, unassigned) [Example 204] with its measured pIC50.
### Response 7.21

### Prompt Annotate the molecule `CC(=O)N1CC(=C(C)c2cc(Cl)c3c(c2Cl)C(=O)N(Cc2c(C)cc(C)[nH]c2=O)CC3)C1` with its measured pIC50.
### Response 7.37

***
### Prompt Annotate the molecule CCC(OC)c1cc(Cl)c2c(c1Cl)C(=O)N(Cc1c(OC)cc(C)[nH]c1=O)CC2 (single isomer, unassigned) [Example 107] with its measured pIC50.
### Response 7.74

* * *

Target: EZH2 Mutant Y641N (Homo sapiens (Human), UniProt Q15910, Y641N)
Test: EZH2 Mutant Y641N nucleosome assay
Format: biochemical
Conditions: EZH2 Mutant Y641N Nucleosome assay IC50 (μM), PRC2 4-protein complex 6 nM, 1.5 μM SAM, HeLa oligonucleosomes
property: IC50
Returns: string containing the number followed by the unit.

### Prompt Annotate the molecule Cc1cc(C)c(CN2CCc3c(Cl)cc(C(CO)C4CCOCC4)c(Cl)c3C2=O)c(=O)[nH]1 (single isomer, unassigned) [Example 37] with its measured IC50.
### Response 0.002 µM

Field: IC50. Fill in for each record below.
1. Cc1cc(C)c(CN2CCc3c(Cl)cc(C(CO)C4CCOCC4)c(Cl)c3C2=O)c(=O)[nH]1 (racemic) [Example 31]
2. CCC(O)c1cc(Cl)c2c(c1Cl)C(=O)N(Cc1c(C)cc(C)[nH]c1=O)CC2 (single isomer, unassigned) [Example 27]
3. Cc1cc(C)c(CN2CCc3c(Cl)cc(C(C)CO)c(Cl)c3C2=O)c(=O)[nH]1 (racemic)

### Response
0.006 µM
0.3 µM
0.125 µM

The origin of these recorded values is patent US10570121B2.
